- TGT: T1, MBP-Sbh1 full length, P52870
- T1 chain: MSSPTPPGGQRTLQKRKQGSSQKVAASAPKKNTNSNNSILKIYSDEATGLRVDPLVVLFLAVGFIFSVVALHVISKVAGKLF
- ASSAY_METHOD_TEXT: pull-down (Ni-NTA capture after coexpression, Coomassie quantification)
- CONDITIONS_USED: chain shown with the change; capture assay repeated three times; parent: 1
MEASURED_ENDPOINT: ratio to parent
Answer as a number with no unit attached.

| BINDER | ratio to parent |
| --- | --- |
| His-tagged hSgt2-C (hSgt2 213-313), O43765 M233D; L295D (protein) TGGVGSFDIAGLLNNPGFMSDASNLMNNPQIQQLMSGMISGGNNPLGTPGTSPSQNDLASLIQAGQQFAQQMQQQNPELIEQDRSQIRSRTPSASNDDQQE | 0.44 |

Which ratio to parent is listed for His-tagged hSgt2-C (hSgt2 213-313), O43765 L295D (protein) TGGVGSFDIAGLLNNPGFMSMASNLMNNPQIQQLMSGMISGGNNPLGTPGTSPSQNDLASLIQAGQQFAQQMQQQNPELIEQDRSQIRSRTPSASNDDQQE ? 0.86

Record request: ratio to parent value, item His-tagged ySgt2-C (ySgt2 222-346), Q12118 M315D (protein) SLNLEKTVPEQSRDADVDASQGASAGGLPDLGSLLGGGLGGLMNNPQLMQAAQKMMSNPGAMQNIQKMMQDPSIRQMAEGFASGGGTPNLSDLDNNPALRNMAGNLFGGAGAQSTDETPDNENKQ 0.34

Which ratio to parent is listed for His-tagged hSgt2-C (hSgt2 213-313), O43765 M247D (protein) TGGVGSFDIAGLLNNPGFMSMASNLMNNPQIQQLDSGMISGGNNPLGTPGTSPSQNDLASLIQAGQQFAQQMQQQNPELIEQLRSQIRSRTPSASNDDQQE ? 0.68
